Tested on: Streptococcus pyogenes
Experiment: Antibacterial activity against erythromycin-resistant Streptococcus pyogenes 2 assessed as bacterial growth inhibition incubated for 24 hrs by CLSI protocol based broth microdilution method
Format: functional
Below, each of the compounds is paired with its reported MIC value.
Field: numeric (µg/mL). Do not append units.

CCCCc1ccc(C#Cc2c3ccccc3[n+](C)c3ccccc23)cc1.[I-] ... 8

Moving on to the next compound.
Problem: Can you look up the measured MIC of C[n+]1c2ccccc2c(NC2CC2)c2ccccc21.[Cl-] for me?
Solution: 64

###

Test system: Streptococcus pyogenes
Assay: Antibacterial activity against erythromycin-resistant Streptococcus pyogenes 2 assessed as bacterial growth inhibition incubated for 24 hrs by CLSI protocol based broth microdilution method
Format: functional
Exam item: assign 1 to entries whose MIC is below 4 mg/L and -1 to entries at or above 4 mg/L. Note that a value of exactly 4 mg/L receives -1.

Problem: Dear reviewer, please state whether CCCNc1c2ccccc2[n+](C)c2ccccc12.[Cl-] has MIC strictly beneath 4 mg/L.
Solution: -1

Problem: Dear reviewer, please state whether C[n+]1c2ccccc2c(-c2ccccc2)c2ccccc21.[I-] has MIC strictly beneath 4 mg/L.
Solution: -1

Problem: Dear reviewer, please state whether C[n+]1c2ccccc2c(Nc2ccncn2)c2ccccc21.[Cl-] has MIC strictly beneath 4 mg/L.
Solution: -1

Problem: Dear reviewer, please state whether Cc1cccc(-c2c3ccccc3[n+](C)c3ccccc23)c1.[I-] has MIC strictly beneath 4 mg/L.
Solution: -1

Problem: Dear reviewer, please state whether C[n+]1c2ccccc2c(-c2ccc(C=O)cc2)c2ccccc21.[I-] has MIC strictly beneath 4 mg/L.
Solution: -1

Problem: Dear reviewer, please state whether C[n+]1c2ccccc2c(-c2ccc(C(F)(F)F)cc2)c2ccccc21.[I-] has MIC strictly beneath 4 mg/L.
Solution: 1

Problem: Dear reviewer, please state whether CCc1ccc(/C=C/c2c3ccccc3[n+](C)c3ccccc23)cc1.[I-] has MIC strictly beneath 4 mg/L.
Solution: 1

Problem: Dear reviewer, please state whether C[n+]1c2ccccc2c(/C=C/c2ccc(-c3ccccc3)cc2)c2ccccc21.[I-] has MIC strictly beneath 4 mg/L.
Solution: 1
